The values you see were collected from patent US20210324080A1.

- Test system: T1, monkey CTLA-4, full length, on transfected HEK293 cells (monkey)
- T1 construct: whole, on cells; also called cCTLA-4; HEK293-cCTLA-4
- Assay summary: FACS, monkey CTLA-4 expressing cells
Experimental readout: MFI at 0.064 nM
Reply with the value as a number alone.

# annotated cases, reported MFI at 0.064 nM shown
92C8B6 fully human CTLA-4 antibody (human IgG1, kappa) (antibody, V domains shown, also called mAb42; mAb042) VH: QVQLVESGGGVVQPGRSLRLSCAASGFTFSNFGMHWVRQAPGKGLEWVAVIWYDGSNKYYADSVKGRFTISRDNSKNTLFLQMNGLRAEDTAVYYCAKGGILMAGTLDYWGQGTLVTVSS VL: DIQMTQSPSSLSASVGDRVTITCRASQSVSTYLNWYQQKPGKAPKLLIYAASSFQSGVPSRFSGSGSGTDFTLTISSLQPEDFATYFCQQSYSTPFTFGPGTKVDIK; 68
31C12F3 fully human CTLA-4 antibody (human IgG1, kappa) (antibody, V domains shown, also called mAb010) VH: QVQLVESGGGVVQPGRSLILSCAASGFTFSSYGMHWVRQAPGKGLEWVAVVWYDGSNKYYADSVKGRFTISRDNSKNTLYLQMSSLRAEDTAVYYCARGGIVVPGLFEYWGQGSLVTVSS VL: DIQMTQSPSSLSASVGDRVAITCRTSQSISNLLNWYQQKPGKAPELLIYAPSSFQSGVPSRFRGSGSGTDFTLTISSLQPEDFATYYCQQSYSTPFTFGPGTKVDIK; 98
97A8D1 fully human CTLA-4 antibody (human IgG1, kappa) (antibody, V domains shown, also called mAb49; mAb049) VH: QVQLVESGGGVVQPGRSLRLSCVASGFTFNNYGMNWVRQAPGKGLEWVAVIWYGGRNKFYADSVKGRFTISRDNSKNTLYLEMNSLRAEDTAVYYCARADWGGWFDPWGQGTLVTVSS VL: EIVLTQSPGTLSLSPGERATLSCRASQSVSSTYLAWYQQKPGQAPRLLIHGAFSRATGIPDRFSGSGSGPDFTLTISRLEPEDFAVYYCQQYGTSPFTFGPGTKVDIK; 67

Using the record for 40C4C6 fully human CTLA-4 antibody (human IgG1, kappa) (antibody, V domains shown, also called mAb09; mAb009) VH: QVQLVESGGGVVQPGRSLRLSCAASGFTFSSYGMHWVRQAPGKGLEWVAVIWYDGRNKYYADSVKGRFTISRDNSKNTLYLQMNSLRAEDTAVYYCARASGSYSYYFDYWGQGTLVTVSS VL: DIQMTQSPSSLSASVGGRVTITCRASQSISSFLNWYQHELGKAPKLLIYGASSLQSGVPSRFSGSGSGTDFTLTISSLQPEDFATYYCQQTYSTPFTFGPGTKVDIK , report its MFI at 0.064 nM.
69
